molecular target: Lipolase® 100L (Thermomyces lanuginosus, UniProt O59952); construct: purchased Sigma-Aldrich; test: Lipase storage stability in liquid formulations at 37° C. (pNP-valerate activity); format: biochemical, Thermomyces lanuginosa; settings: base formulation II. (Lipolase 0.2 wt%, tested compound 2.5 wt%); 35 d storage at 37° C.
Sequence (O59952 23-291): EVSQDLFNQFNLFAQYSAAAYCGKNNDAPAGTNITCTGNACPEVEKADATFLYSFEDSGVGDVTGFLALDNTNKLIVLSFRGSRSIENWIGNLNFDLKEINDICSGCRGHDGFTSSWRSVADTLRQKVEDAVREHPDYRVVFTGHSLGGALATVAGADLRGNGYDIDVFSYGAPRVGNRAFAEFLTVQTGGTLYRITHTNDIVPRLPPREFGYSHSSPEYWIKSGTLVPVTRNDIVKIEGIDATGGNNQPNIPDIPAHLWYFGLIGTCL
Kindly state lipase activity, 35 d for each of the entries shown.
Answers are plain numbers, in %.

COMPOUND: CCOC(=O)CC(O)(CC(=O)O)C(=O)O (stereo not drawn) [A.6, Monoethylcitrate]
lipase activity, 35 d, %: 71
//
COMPOUND: CC(=O)OCC(COC(C)=O)OC(C)=O [B.4, glyceroltriacetate (triacetine), reference compound]
lipase activity, 35 d, %: 35
//
COMPOUND: O=C([O-])CC(O)(CC(=O)[O-])C(=O)[O-].[Na+].[Na+].[Na+] [B.2, citric acid trisodiumsalt, reference compound]
lipase activity, 35 d, %: 34
//
COMPOUND: O=C(CC(O)(CC(=O)OCc1ccccc1)C(=O)OCc1ccccc1)OCc1ccccc1 [A.8, Tribenzylcitrate]
lipase activity, 35 d, %: 77
//
COMPOUND: CCOC(=O)CC(O)(CC(=O)OCC)C(=O)OCC [A.1, Triethylcitrate]
lipase activity, 35 d, %: 80

// next entry
Q: Quote lipase activity, 35 d reported for CCOC(=O)CC(CC(=O)OCC)(OC(C)=O)C(=O)OCC [A.5, Acetyltriethylcitrate] please.
Ans: 81

* * *

molecular target: Lipolase® 100L (Thermomyces lanuginosus, UniProt O59952); construct: purchased Sigma-Aldrich; assay: Lipase storage stability in liquid formulations at 37° C. (pNP-valerate activity); assay type: biochemical, Thermomyces lanuginosa; conditions: base formulation I. (Lipolase 0.2 wt%, tested compound 2.5 wt%); 21 d storage at 37° C.
PROPERTY MEASURED: lipase activity, 21 d (%)
Numbers only, in %.

Answered examples (3):
COMPOUND: O=C([O-])CC(O)(CC(=O)[O-])C(=O)[O-].[Na+].[Na+].[Na+] [B.2, citric acid trisodiumsalt, reference compound]
PROPERTY MEASURED: lipase activity, 21 d
VALUE MEASURED: 57

COMPOUND: CCOC(=O)CC(O)(CC(=O)OCC)C(=O)OCC [A.1, Triethylcitrate]
PROPERTY MEASURED: lipase activity, 21 d
VALUE MEASURED: 87

COMPOUND: CC(=O)OCC(COC(C)=O)OC(C)=O [B.4, glyceroltriacetate (triacetine), reference compound]
PROPERTY MEASURED: lipase activity, 21 d
VALUE MEASURED: 56

Next compound, please.
Q: Retrieve lipase activity, 21 d measured for CCOC(=O)CC(CC(=O)OCC)(OC(C)=O)C(=O)OCC [A.5, Acetyltriethylcitrate] and print it.
Ans: 86

* * *

For each of the molecules below, state its lipase activity, 14 d.
molecular target: Lipolase® 100L (Thermomyces lanuginosus); construct: purchased Sigma-Aldrich; assay: Lipase storage stability in liquid formulations at 37° C. (pNP-valerate activity); type: biochemical, Thermomyces lanuginosa; details: base formulation III. (Lipolase 0.2 wt%, tested compound 2.0 wt%); 14 d storage at 37° C.

MOLECULE: CCOC(=O)CC(CC(=O)OCC)(OC(C)=O)C(=O)OCC [A.5, Acetyltriethylcitrate]
lipase activity, 14 d: 88%
//
MOLECULE: CCOC(=O)CC(O)(CC(=O)O)C(=O)O (stereo not shown) [A.6, Monoethylcitrate]
lipase activity, 14 d: 87%
//
MOLECULE: O=C(O)CC(O)(CC(=O)O)C(=O)O [B.1, citric acid, reference compound]
lipase activity, 14 d: 70%
//
MOLECULE: CCOC(=O)CC(O)(CC(=O)OCC)C(=O)OCC [A.1, Triethylcitrate]
lipase activity, 14 d: 93%
//
MOLECULE: CCCOC(=O)CC(O)(CC(=O)OCCC)C(=O)OCCC [A.2, Tripropylcitrate]
lipase activity, 14 d: 97%

Look up lipase activity, 14 d for the entries below, preserving their order.
1. CCOC(=O)C(=O)OCC [B.3, diethyloxalate, reference compound]
2. O=C([O-])CC(O)(CC(=O)[O-])C(=O)[O-].[Na+].[Na+].[Na+] [B.2, citric acid trisodiumsalt, reference compound]

Ans:
1: 69%; 2: 69%

* * *

target: Lipolase® 100L (Thermomyces lanuginosus, UniProt O59952); construct: purchased Sigma-Aldrich; assay: Lipase storage stability in liquid formulations at 37° C. (pNP-valerate activity); assay type: biochemical, Thermomyces lanuginosa; details: base formulation II. (Lipolase 0.2 wt%, tested compound 2.5 wt%); 7 d storage at 37° C.
PROPERTY MEASURED: lipase activity, 7 d (%)
Numbers only, in %.

Below: 3 compounds and their reported lipase activity, 7 d.
COMPOUND: CCOC(=O)CC(CC(=O)OCC)(OC(C)=O)C(=O)OCC [A.5, Acetyltriethylcitrate]
VALUE MEASURED: 97
//
COMPOUND: CCOC(=O)CC(O)(CC(=O)OCC)C(=O)OCC [A.1, Triethylcitrate]
VALUE MEASURED: 94
//
COMPOUND: O=C(CC(O)(CC(=O)OCc1ccccc1)C(=O)OCc1ccccc1)OCc1ccccc1 [A.8, Tribenzylcitrate]
VALUE MEASURED: 90

Please supply lipase activity, 7 d for each of the following items, keeping them in order.
1. O=C([O-])CC(O)(CC(=O)[O-])C(=O)[O-].[Na+].[Na+].[Na+] [B.2, citric acid trisodiumsalt, reference compound]
2. CC(=O)OCC(COC(C)=O)OC(C)=O [B.4, glyceroltriacetate (triacetine), reference compound]
3. CCOC(=O)CC(O)(CC(=O)O)C(=O)O (stereo not drawn) [A.6, Monoethylcitrate]

Ans:
1: 82; 2: 77; 3: 95

* * *

Biological target: Lipolase® 100L (Thermomyces lanuginosus)
Construct: purchased Sigma-Aldrich
Assay: Lipase storage stability in liquid formulations at 37° C. (pNP-valerate activity)
Type: biochemical, Thermomyces lanuginosa
Details: base formulation V. (Lipolase 0.2 wt%, tested compound 2.0 wt%); 7 d storage at 37° C.
Procedure: The storage stability of Lipase was assessed at 37° C. Base test formulations were manufactured by making base formulations I to V by mixing the components according to Table 1. […] Lipolase activity at certain points in time as indicated in Table 2 was be determined by employing pNitrophenol-valerate (2.4 mM pNP-C5 in 100 mM Tris pH 8.0, 0.01% Triton X100) as a substrate. The absorption at 405 nm was measured at 20° C. every 30 seconds over 5 minutes. […]
Parameter threshold = 90%. Response is Criterion met when lipase activity, 7 d meets or exceeds it, else Criterion not met.

Below are worked cases with known answers.
COMPOUND: CCOC(=O)CC(O)(CC(=O)OCC)C(=O)OCC [A.1, Triethylcitrate]
CLASS: Criterion met

COMPOUND: CCOC(=O)C(=O)OCC [B.3, diethyloxalate, reference compound]
CLASS: Criterion not met

COMPOUND: O=C(CC(O)(CC(=O)OCc1ccccc1)C(=O)OCc1ccccc1)OCc1ccccc1 [A.8, Tribenzylcitrate]
CLASS: Criterion met

COMPOUND: CCCCOC(=O)CC(CC(=O)OCCCC)(OC(C)=O)C(=O)OCCCC [A.4, Acetyltributylcitrate]
CLASS: Criterion met

# input for lookup
Q: Confirm if lipase activity, 7 d reported for the compound O=C(O)CC(O)(CC(=O)O)C(=O)O [B.1, citric acid, reference compound] is 90% or above.
Ans: Criterion not met

* * *

target: Lipolase® 100L (Thermomyces lanuginosus, UniProt O59952); construct: purchased Sigma-Aldrich; assay: Lipase storage stability in liquid formulations at 37° C. (pNP-valerate activity); assay type: biochemical, Thermomyces lanuginosa; settings: base formulation V. (Lipolase 0.2 wt%, tested compound 2.0 wt%); T0; relative to 100% value of reference formulation at time 0
Please go through the items and note down their lipase activity, T0.
Answers are plain numbers, in %.

MOLECULE: CCOC(=O)CC(O)(CC(=O)OCC)C(=O)OCC [A.1, Triethylcitrate]
VALUE MEASURED: 100

MOLECULE: CCCCOC(=O)CC(O)(CC(=O)OCCCC)C(=O)OCCCC [A.3, Tributylcitrate]
VALUE MEASURED: 101

MOLECULE: CCCCOC(=O)CC(CC(=O)OCCCC)(OC(C)=O)C(=O)OCCCC [A.4, Acetyltributylcitrate]
VALUE MEASURED: 101

Provide the reported lipase activity, T0 of each entry below, same order.
1. O=C(O)CC(O)(CC(=O)O)C(=O)O [B.1, citric acid, reference compound]
2. CCOC(=O)C(=O)OCC [B.3, diethyloxalate, reference compound]
3. O=C(CC(O)(CC(=O)OCc1ccccc1)C(=O)OCc1ccccc1)OCc1ccccc1 [A.8, Tribenzylcitrate]

Ans:
[98, 97, 98]

* * *

biological target: Lipolase® 100L (Thermomyces lanuginosus, UniProt O59952); construct: purchased Sigma-Aldrich; assay: Lipase storage stability in liquid formulations at 37° C. (pNP-valerate activity); assay type: biochemical, Thermomyces lanuginosa; settings: base formulation IV. (Lipolase 0.2 wt%, tested compound 2.0 wt%); 21 d storage at 37° C.
Decision: lipase activity, 21 d beneath 60% gives y; lipase activity, 21 d meeting or exceeding 60% gives n.

COMPOUND: CCCCOC(=O)CC(CC(=O)OCCCC)(OC(C)=O)C(=O)OCCCC [A.4, Acetyltributylcitrate]
CLASS: n

Q: Does the reported lipase activity, 21 d of CCCCOC(=O)CC(O)(CC(=O)OCCCC)C(=O)OCCCC [A.3, Tributylcitrate] stay below 60%?
Ans: n

Q: Please state whether lipase activity, 21 d is below 60% for CCOC(=O)CC(O)(CC(=O)O)C(=O)O (centres unmarked) [A.6, Monoethylcitrate]
Ans: n

Q: Strictly below 60% in lipase activity, 21 d? CCOC(=O)CC(O)(CC(=O)OCC)C(=O)OCC [A.1, Triethylcitrate]
Ans: n

Q: Input CCOC(=O)C(=O)OCC [B.3, diethyloxalate, reference compound] ; condition: lipase activity, 21 d strictly below 60%. Does it hold?
Ans: n

Q: Quick check: lipase activity, 21 d of O=C([O-])CC(O)(CC(=O)[O-])C(=O)[O-].[Na+].[Na+].[Na+] [B.2, citric acid trisodiumsalt, reference compound] under 60%?
Ans: y

Q: Identify whether the compound O=C(O)CC(O)(CC(=O)O)C(=O)O [B.1, citric acid, reference compound] records lipase activity, 21 d below 60%.
Ans: y
